Reference for the values: PubChem BioAssay AID463210

SYSTEM_TESTED: Caspase-7 (Homo sapiens) (UniProt P55210)
Sequence (P55210 whole entry D23A/D198A/D206A): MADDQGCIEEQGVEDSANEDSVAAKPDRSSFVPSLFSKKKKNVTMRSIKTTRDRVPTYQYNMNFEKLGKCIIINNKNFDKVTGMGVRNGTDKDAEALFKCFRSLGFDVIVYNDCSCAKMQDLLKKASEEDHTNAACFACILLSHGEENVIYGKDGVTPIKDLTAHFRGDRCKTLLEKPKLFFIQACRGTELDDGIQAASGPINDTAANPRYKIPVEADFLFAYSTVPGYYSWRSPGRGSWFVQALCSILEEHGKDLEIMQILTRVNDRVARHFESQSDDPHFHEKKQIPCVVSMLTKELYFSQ
ASSAY_NOTES: procaspase-7 activators, primary screen, counter-screen for procaspase-3 activator project, biochemical, absorbance, HTS, human (AID 463210)
EXPERIMENTAL_CONTEXT: recombinant procaspase-7, Ac-DEVD-pNA absorbance 405 nm; at 8.5 µM; hits give high values; D23A/D198A/D206A triple mutant, cannot self-cleave; scale: DMSO 0, 5 µM enzyme 100
In all, about 330,000 compounds went through this assay and about 300 (0.091%) were called active. Many of the other results were omitted from the sample, so actives are more common in it than they were.
PARAMETER_MEASURED: activation (%)
Only the number, expressed in %, is required.

Known results for compounds:
Cc1cc(C)cc(Oc2c(C(F)(F)F)oc3cc(OCC(=O)O)ccc3c2=O)c1: -4.44
CC(=O)N1c2ccc(S(=O)(=O)N3CCCC(C(=O)NCc4ccc(Cl)cc4)C3)cc2CC1C (stereo not given): 1.56
COc1ccc(CNC(=O)COC(=O)CCS(=O)(=O)c2ccc(C)cc2)cc1OC: 6.34
O=S(=O)(NCCSc1ccccn1)c1ccc(Cl)cc1: -2.06

Consider COc1ccc(/C=N/Nc2nc3ccccc3c(=O)[nH]2)cc1 . Its measured activation is 28.9

* * *

# activation annotations
SYSTEM_TESTED: Caspase-7 (Homo sapiens) (UniProt P55210)
ASSAY_NOTES: procaspase-7 activators, primary screen, counter-screen for procaspase-3 activator project, biochemical, absorbance, HTS, human (AID 463210)
EXPERIMENTAL_CONTEXT: recombinant procaspase-7, Ac-DEVD-pNA absorbance 405 nm; at 8.5 µM; hits give high values; D23A/D198A/D206A triple mutant, cannot self-cleave; scale: DMSO 0, 5 µM enzyme 100
Screen size: about 330,000 compounds; about 300 (0.091%) were called active. This is one part of a sample in which actives are shown more often than they occur.
Please give a number only; it is taken to be in %.

Example molecules with recorded activation:
CCOC(=O)/C=C/c1ccc(C(F)(F)F)cc1S(=O)(=O)NC(C)(C)C: 2.37
COc1ccc(S(=O)(=O)NCC2CCCN(C(=O)c3occc3C)C2)cc1 (stereo unspecified): -3.49
O=C(COc1cccc2c1CCNC2=O)NC1CCCCC1: -3.37
CC(=O)c1ccc(OC(=O)N2CCOCC2)cc1: -1.27
CCOC(=O)Cn1c2c(c(-c3ccccc3OC)cc1=O)CCCC2: 0.27

Notebook: COc1ccc(C(CC(=O)N2CCN(c3ccccc3)CC2)c2c(O)cc(OC)cc2OC)cc1 (stereo unspecified) , activation read as 5.61

* * *

SYSTEM_TESTED: Caspase-7 (Homo sapiens) (UniProt P55210)
ASSAY_NOTES: procaspase-7 activators, primary screen, counter-screen for procaspase-3 activator project, biochemical, absorbance, HTS, human (AID 463210)
EXPERIMENTAL_CONTEXT: recombinant procaspase-7, Ac-DEVD-pNA absorbance 405 nm; at 8.5 µM; hits give high values; D23A/D198A/D206A triple mutant, cannot self-cleave; scale: DMSO 0, 5 µM enzyme 100
Screen size: about 330,000 compounds; about 300 (0.091%) were called active. Shown is part of a subset that was picked to be rich in actives.
activation below 9% gives Criterion not met; activation at or above it gives Criterion met.

Worked set:
Cn1cc(S(=O)(=O)NC(c2ccccc2)c2ccccc2)c(=O)n(C)c1=O: Criterion not met
O=C(c1cn(-c2ccccc2)nc1-c1cccnc1)N1CCN(S(=O)(=O)c2ccccc2F)CC1: Criterion met

Input line: Test whether the compound O=C(C[n+]1cc(-c2ccc(Cl)c(Cl)c2)n2c1CCC2)c1cccs1 records activation of 9% or higher.
Output line: Criterion not met

Input line: Record Cc1ccc(S(=O)(=O)NCCC(=O)OCC(=O)N(C)c2ccccc2)cc1 ; criterion: activation no lower than 9%. Met?
Output line: Criterion not met

Input line: Hi, just wondering whether CCOC(=O)CN1C(=O)C(=O)c2cc(C)ccc21 shows activation of 9% or higher.
Output line: Criterion not met

Input line: Confirm if activation reported for the compound CCn1c(N)c(Br)c(=O)[nH]c1=O is 9% or above.
Output line: Criterion met

Input line: Could you verify whether the entry CCOc1cc(C(=O)OCC(=O)Nc2cccc(C)c2)ccc1OCC(=O)N1CCOCC1 shows activation of no less than 9%?
Output line: Criterion met

Input line: Exam item: decide whether the reported activation for CCCCCCCCCCOC(=O)Cn1c(COc2ccc(C)cc2)[n+](C)c2ccccc21 is at least 9%.
Output line: Criterion not met

Input line: Dear colleague, could you confirm whether CN(C(=O)CCNC(=O)Cn1ccc2ccccc2c1=O)c1ccc(Br)cc1 has activation at or above 9%?
Output line: Criterion not met

Input line: # check: activation of C=CCN(c1ccccc1C(=O)NCC(=O)OCC)S(=O)(=O)c1ccc(C)cc1 is greater than or equal to 9%
Output line: Criterion not met

* * *

This listing pairs compounds with measured activation.
SYSTEM_TESTED: Caspase-7 (Homo sapiens) (UniProt P55210)
ASSAY_NOTES: procaspase-7 activators, primary screen, counter-screen for procaspase-3 activator project, biochemical, absorbance, HTS, human (AID 463210)
EXPERIMENTAL_CONTEXT: recombinant procaspase-7, Ac-DEVD-pNA absorbance 405 nm; at 8.5 µM; hits give high values; D23A/D198A/D206A triple mutant, cannot self-cleave; scale: DMSO 0, 5 µM enzyme 100
Among all 330,000 compounds or so, about 300 (0.091%) were called active. The sample as a whole holds a higher share of actives than the screen did.
Record the value in %, omitting the unit from your answer.

Record excerpt, results attached:
CCCCc1ccc(NS(=O)(=O)c2cccc(C(=O)N3CCCN(C)CC3)c2)cc1: -3.56
CC(CCc1ccccc1)NC(=O)COC(=O)c1ccc(F)cc1 (stereo unspecified): 4.27

Now, please, on to the next compound.
Entry COc1ccc(NC(=O)C2CCN(S(=O)(=O)c3ccc4[nH]c(=O)oc4c3)CC2)c(OC)c1 , activation reported as -1.26

* * *

SYSTEM_TESTED: Caspase-7 (Homo sapiens) (UniProt P55210)
ASSAY_NOTES: procaspase-7 activators, primary screen, counter-screen for procaspase-3 activator project, biochemical, absorbance, HTS, human (AID 463210)
EXPERIMENTAL_CONTEXT: recombinant procaspase-7, Ac-DEVD-pNA absorbance 405 nm; at 8.5 µM; hits give high values; D23A/D198A/D206A triple mutant, cannot self-cleave; scale: DMSO 0, 5 µM enzyme 100
Screen size: about 330,000 compounds; about 300 (0.091%) were called active. This is one part of a sample in which actives are shown more often than they occur.
PARAMETER_MEASURED: activation (%)
Answer with a number only, understood to be in %.

CC(C)C1Nc2c(C(=O)O)cccc2C(Nc2ccccc2C(=O)O)C1(C)C (stereo unspecified): -0.22

Measured activation for this entry Fc1ccc(N2N=C(c3cccs3)CC2c2ccco2)c(F)c1 (stereo unspecified) on Caspase-7 (Homo sapiens) (UniProt P55210): 51

* * *

Entries and their measured activation follow.
SYSTEM_TESTED: Caspase-7 (Homo sapiens)
ASSAY_NOTES: procaspase-7 activators, primary screen, counter-screen for procaspase-3 activator project, biochemical, absorbance, HTS, human (AID 463210)
EXPERIMENTAL_CONTEXT: recombinant procaspase-7, Ac-DEVD-pNA absorbance 405 nm; at 8.5 µM; hits give high values; D23A/D198A/D206A triple mutant, cannot self-cleave; scale: DMSO 0, 5 µM enzyme 100
The whole screen tested about 330,000 compounds, of which about 300 (0.091%) were called active. The full list was thinned out, with actives kept by preference.
Quick reminder: number only, in %, skip the unit.

// worked examples, activation included
CC1(C)Cc2c(C#N)c(SCc3nc4ccccc4[nH]3)nc(N3CCOCC3)c2CO1: 33
O=S(=O)(Oc1ccccc1C(=S)N1CCOCC1)c1ccc(Cl)cc1: 5.11
Cc1ccc(S(=O)(=O)NCC(=O)N(CC(=O)NCC2CCCO2)c2cccc(F)c2)cc1 (configuration not stated): -1.1
Cc1ccc(Cc2cncc(O)c2)cc1S(=O)(=O)O: 10.6
N#Cc1ccccc1CN1C(=O)S/C(=C/c2cccn2-c2cccc(C(=O)O)c2)C1=O: -18.8
Nc1cccc2c1C(=O)N(Cc1nnc(-c3ccccc3Br)o1)C2=O: 64.5
CC1=NN(C(N)=S)C(=O)C1N=Nc1cc(Cl)ccc1Cl (configuration not stated): 42
COc1ccc(N2CCN(S(=O)(=O)c3cc4c5c(c3)C(C)C(=O)N5CCC4)CC2)cc1 (configuration not stated): 4.7
O=C(NCCN1CCOC1=O)C1CCC(=O)N(CCc2ccc(Cl)cc2)C1 (configuration not stated): -3.88
COC(=O)c1ccc(NS(=O)(=O)c2cc3c4c(c2)C(C)C(=O)N4CCC3)cc1 (configuration not stated): 8.38

The recorded activation for entry Cc1[nH]n(C(N)=S)c(=O)c1N=Nc1ccc(Cl)cc1Cl equals -4.08

Note to self: activation recorded for Cc1cc(C)c(C)c(S(=O)(=O)N2CCN(C(=O)c3ccc4c(=O)n5c(nc4c3)CCC5)CC2)c1C was 0.83

Entry COc1cccc(C(=O)n2ccc(-c3cccs3)n2)c1 — recorded activation = 7.3

The recorded activation for entry Cc1ccc(S(=O)(=O)N2CCC(C(=O)N[C@@H](C)C(=O)NCc3ccco3)CC2)cc1 equals -5.6

The reported value for Cc1csc(/N=C/N(C)C)c1C#N in terms of activation is -2.59

// field: activation; key: COc1ccccc1N1CCN(C(=O)c2ccc(NC3=NC4CS(=O)(=O)CC4S3)cc2)CC1 (configuration not stated) ; value = 5.2

Looking up S=C(Nc1ccc(Br)cc1)NC1CCN(Cc2ccccc2)CC1 , I see its activation listed as -4.11

Form field activation, entry O=C1CCCCN1CCCC(=O)N1CCCC(Nc2ccc(F)cc2)C1 (configuration not stated) : -11.7

Memo: Cc1ccc(S(=O)(=O)N2C[C@@H]3CCCC[C@@H]3[C@@H](C)[C@H]2c2cn(Cc3ccccc3)c3ccc(F)cc23)cc1 , reported activation: 6.02

Input CNS(=O)(=O)c1cccc(C(=O)NCC2CCCCC2)c1 . Output activation: 1.69

In plain terms, O=c1cc(CO)oc(C(Nc2cccc(C(F)(F)F)c2)c2ccccn2)c1O (configuration not stated) has a documented activation of -8.69

Record summary for COc1ccc(CNS(=O)(=O)c2cc(-c3cc(C)no3)ccc2C(C)C)cc1 : reported activation = 7.17

Looking up O=C(O)c1cc(S(=O)(=O)NC2CCCc3ccccc32)ccc1O (configuration not stated) , I found its activation recorded as -8.22
